# System: P388 leukemia ip, CD2F1 mice, survival T/C
# ASSAY: NCI In Vivo Anticancer Drug Screen. Data for tumor model P388 Leukemia (intraperitoneal) in CD2F1 (CDF1) mice
# CONDITIONS USED: endpoint: median survival time; dose: 200.0 mg/kg/injection; schedule: Q04DX002 (ip); vehicle: saline with Tween-80; higher = longer survival
Inconclusive results and toxic doses are left out.
Examples of molecules with documented T/C follow.
ATTRIBUTE MEASURED: T/C

| MOLECULE | SYSTEM UNDER TEST | REPORTED VALUE |
| --- | --- | --- |
| O=C1N(c2ccccc2)C(=O)C2(N(c3ccccc3)CCN2c2ccccc2)N1c1ccccc1 | P388 leukemia ip, CD2F1 mice, survival T/C | 89 % of control |
| CC(=O)C1=CC(C)(C)OC1=O | P388 leukemia ip, CD2F1 mice, survival T/C | 109 % of control |
| O=C1c2ccccc2SCC12OC2c1ccc(Cl)cc1 (centres undefined) | P388 leukemia ip, CD2F1 mice, survival T/C | 90 % of control |
| COc1ccc(C2(c3ccc(OC)cc3)N=C(N(C)C)NC2=O)cc1 | P388 leukemia ip, CD2F1 mice, survival T/C | 94 % of control |
| O=C1Oc2nc3ccccc3cc2/C1=C/c1ccccc1 | P388 leukemia ip, CD2F1 mice, survival T/C | 92 % of control |
| CC(=O)n1c2ccccc2c2c(C)c3c[n+]([O-])ccc3c(C)c21 | P388 leukemia ip, CD2F1 mice, survival T/C | 93 % of control |
| N#CCN(CNC(=O)c1ccccc1)N=O | P388 leukemia ip, CD2F1 mice, survival T/C | 105 % of control |
| CSc1nc2c(=S)[nH]cnc2s1 | P388 leukemia ip, CD2F1 mice, survival T/C | 92 % of control |
| CCSC(=S)N(CC)c1nc2ccccc2o1 | P388 leukemia ip, CD2F1 mice, survival T/C | 113 % of control |

---

# System: P388 leukemia ip, CD2F1 mice, survival T/C
# ASSAY: NCI In Vivo Anticancer Drug Screen. Data for tumor model P388 Leukemia (intraperitoneal) in CD2F1 (CDF1) mice
# CONDITIONS USED: endpoint: median survival time; dose: 200.0 mg/kg/injection; schedule: Q04DX002 (ip); vehicle: Klucel (hydroxypropylcellulose) (HPC); higher = longer survival
# Protocol: The antitumor activity of compounds was measured in mice bearing transplantable tumors. Survival or tumor size were measured and the results are expressed as the measurement made in the treated group (T) divided by the measurement made in the vehicle treated control group (C). The tumor model used in this assay is P388 Leukemia (intraperitoneal) in CD2F1 (CDF1) mice
Toxic doses and inconclusive results are not listed.

| MOLECULE | T/C |
| --- | --- |
| O=C1CCC2=C1C(c1ccccc1)C1=C(CCC1=O)O2 | 100 % of control |
| N#CC1C(c2ccc(Cl)cc2)C(C(N)=O)C(=O)NC1(O)c1ccccc1 (stereo unspecified) | 99 % of control |
| COC(=O)n1oc2ccccc2c1=O | 101 % of control |
| COc1ccc(NS(=O)(=O)c2ccc(NCc3c4ccccc4nc4ccccc34)cc2)nn1 | 91 % of control |
| Cc1ccc(N=Nc2c(-c3ccccc3)nn(C(=S)S)c2-c2ccccc2)cc1 | 103 % of control |
| Nc1cccc(CC(=O)Nc2ccccc2)c1 | 97 % of control |
